target: mAb-hERG1; assay: SPR; Biacore T200; mAb-hERG1 bound to a Protein G pre-coated CM5 chip (7693 RU); S5-Pore applied at 10, 50, 100, 500 nM, single cycle kinetics; contact 30 s, dissociation 120 s, 30 ul/min
Sequence (heavy, as listed by the source, chain 1 of 2): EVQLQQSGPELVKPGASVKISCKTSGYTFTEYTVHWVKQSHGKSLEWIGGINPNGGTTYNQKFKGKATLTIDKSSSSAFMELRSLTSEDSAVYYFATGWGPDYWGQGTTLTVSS
Sequence (light, as listed by the source, chain 2 of 2): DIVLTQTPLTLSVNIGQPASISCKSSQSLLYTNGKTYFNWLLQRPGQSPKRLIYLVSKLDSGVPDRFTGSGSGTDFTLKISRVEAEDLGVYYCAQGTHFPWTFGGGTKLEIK
measured_endpoint: Kd (nM)
Answers are plain numbers, in nM.

Summary for this binder, EQPHMDSRIGWLHN [S5-Pore peptide] : Kd is 16.2
